# Tested on: LOX IMVI melanoma
# Assay overview: NCI tumour cell line growth inhibition, 48 h
Categorize each record by its TGI using 1 (below 3 µM), 2 (3 µM to below 6 µM), 3 (6 µM or more)

Worked examples follow.
INSERT INTO assay_data (compound, assigned_label) VALUES
  ('O=C1/C(=C/c2cccc(Br)c2)COc2ccc(O)cc21', 2),
  ('C=C1C(=O)OC2C/C(C)=C/CC/C(C)=C/CCC3(COC(C)=O)OC3CC12 (stereo not given)', 3),
  ('O=C(Cc1nc2ccccc2c(=O)n1-c1ccccc1Cl)c1ccncc1', 3);

Q: Into which category would you place `O=C(CCC(=O)Nc1ccc(Cl)c(Cl)c1)CC(=O)c1ccc(Br)cc1` ?
A: 3

Q: // query: `CCN(CC)CCCNc1ccc2nc(C)n3c4ccc(O)cc4c(=O)c1c23`
A: 2

Q: Input `COc1cc(OC)c(C(=O)/C=C/c2cc3c(cc2OCc2ccccc2)OC(C)(C)CC3)cc1CC=C(C)C`
A: 3

Q: How about `Cc1nc(CC#N)n[nH]1` ?
A: 3

Q: # repeat for `CS(=O)(=O)CCNCc1cc(-c2cc3c(Nc4ccc(OCc5cccc(F)c5)c(Cl)c4)ncnc3s2)cs1`
A: 3

Q: Same thing, different compound: O=C1/C(=C\c2cccc(Oc3ccccc3)c2)SC(c2ccccc2)N1c1ccccc1 (stereo not given)
A: 3

Q: Now give it for CC[C@@]1(O)C(=O)OCc2c1cc1n(c2=O)Cc2c-1nc1ccccc1c2/C=N\NC(=O)C1CCCN1 (stereo not given in full) too.
A: 1

Q: One more compound: `Nc1nonc1-c1nc2cnccc2n1C1CC1`
A: 3

Q: Likewise for CC1(C)OC2[C@@H](CO[C@@]3([C@@H](O)CCO)OC(C)(C)O[C@@H]23)O1 (stereo not given in full) ?
A: 3

Q: Same read-out for CN(CCCCCl)P(=O)(OCCS(=O)(=O)CC(NC(=O)CCC(N)C(=O)O)C(=O)NC(C(=O)O)c1ccccc1)OCC1OC(n2ccc(N)nc2=O)C(F)(F)C1O (stereo not given) ?
A: 3

Q: Now try `COc1ccc(-n2c(N)c(C#N)[nH]c2=O)cc1` .
A: 2

Q: Try this compound next: `CN(C)CCNC(=O)c1ccc(NCCCN(C)CCCNc2ccc(C(=O)NCCN(C)C)c3[nH]c4ccccc4c(=O)c23)c2c(=O)c3ccccc3[nH]c12`
A: 1

Q: Field entry: `Cc1ccc(NC=O)c(-c2c(N)[nH]c(=S)[nH]c2=O)c1`
A: 3

Q: Same read-out for `O=C1c2ccccc2-[n+]2ccc3c([nH]c4ccccc43)c21` ?
A: 1

Q: Note, next up: `O=C1c2ccccc2C(=O)c2cc(N=Nc3c(O)ccc4ccccc34)ccc21`
A: 3

Q: What do we get for `COC/C=C\COC` ?
A: 3

* * *

# Test system: K-562 leukemia
# Assay overview: NCI tumour cell line growth inhibition, 48 h
Measure name: TGI

Recorded results for 5 compounds are shown here.
INSERT INTO results (compound, measure_name, test_result) VALUES
  ('Cc1ccc2c(c1)C(=O)c1nc(C)ccc1C2=O', 'TGI', '> 100 µM'),
  ('COc1cc(C2SCCCCCCCCCCSC(c3ccc(O)c(OC)c3)SCCCCCCCCCCS2)ccc1O (stereo not given)', 'TGI', '> 100 µM'),
  ('Nc1ccccc1C#C/C=C\C#Cc1ccc(OCCCNC(=O)c2cc3ccccc3[nH]2)cc1', 'TGI', '> 100 µM'),
  ('CCOC(=O)C(=O)Nc1ccccc1C', 'TGI', '> 100 µM'),
  ('COc1ccc(-n2[nH]nc(C(N)=O)c2=O)cc1', 'TGI', '> 100 µM');

Consider the additional compound presented here.
Q: # returns recorded TGI (system: K-562 leukemia) for `CCOC(=O)c1[nH]c(Br)c(-c2ccc(OC)c(OC)c2)c1Br`
A: 12.7 µM
